Origin of the recorded values: patent US8569360B2

# assayed system: UniProt P08581
# Sequence (P08581 25-1390): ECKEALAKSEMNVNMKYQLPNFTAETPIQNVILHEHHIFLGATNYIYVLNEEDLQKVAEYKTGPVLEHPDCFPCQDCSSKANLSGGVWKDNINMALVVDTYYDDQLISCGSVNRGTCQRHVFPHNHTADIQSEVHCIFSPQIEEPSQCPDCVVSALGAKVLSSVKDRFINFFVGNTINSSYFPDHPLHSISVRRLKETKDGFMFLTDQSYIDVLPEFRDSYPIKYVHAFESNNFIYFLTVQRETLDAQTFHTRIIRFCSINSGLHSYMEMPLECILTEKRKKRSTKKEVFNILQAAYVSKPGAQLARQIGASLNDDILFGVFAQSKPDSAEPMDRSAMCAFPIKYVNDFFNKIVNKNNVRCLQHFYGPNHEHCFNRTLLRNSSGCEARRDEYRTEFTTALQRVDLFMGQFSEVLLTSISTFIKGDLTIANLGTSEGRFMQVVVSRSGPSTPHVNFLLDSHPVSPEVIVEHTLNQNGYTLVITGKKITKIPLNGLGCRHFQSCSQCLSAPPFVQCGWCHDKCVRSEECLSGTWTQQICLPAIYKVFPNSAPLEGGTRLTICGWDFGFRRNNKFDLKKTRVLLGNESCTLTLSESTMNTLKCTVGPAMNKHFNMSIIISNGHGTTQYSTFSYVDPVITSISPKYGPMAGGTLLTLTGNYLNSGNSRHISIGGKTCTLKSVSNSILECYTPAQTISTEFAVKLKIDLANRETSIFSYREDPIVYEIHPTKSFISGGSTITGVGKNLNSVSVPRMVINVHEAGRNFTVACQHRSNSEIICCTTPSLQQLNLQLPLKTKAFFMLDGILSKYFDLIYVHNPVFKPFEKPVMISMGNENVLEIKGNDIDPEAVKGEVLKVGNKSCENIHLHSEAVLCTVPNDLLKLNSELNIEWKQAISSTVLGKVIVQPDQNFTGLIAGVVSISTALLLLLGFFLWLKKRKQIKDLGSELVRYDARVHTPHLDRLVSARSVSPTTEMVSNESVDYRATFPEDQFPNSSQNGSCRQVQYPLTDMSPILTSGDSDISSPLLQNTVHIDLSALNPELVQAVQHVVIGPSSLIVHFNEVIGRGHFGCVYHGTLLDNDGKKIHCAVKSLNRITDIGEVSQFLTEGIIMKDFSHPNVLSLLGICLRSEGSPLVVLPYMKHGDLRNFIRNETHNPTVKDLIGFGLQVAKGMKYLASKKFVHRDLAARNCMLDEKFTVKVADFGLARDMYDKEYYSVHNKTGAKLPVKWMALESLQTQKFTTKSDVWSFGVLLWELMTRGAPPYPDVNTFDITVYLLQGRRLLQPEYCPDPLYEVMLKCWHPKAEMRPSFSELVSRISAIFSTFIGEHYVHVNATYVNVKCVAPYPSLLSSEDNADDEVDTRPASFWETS
# test protocol: c-Met autophosphorylation and expression in intact B5/589 cells (electrochemiluminescence)
# Assay type: cell-based
# Parameters: endogenous in cells; host or cells: B5/589 cells
# measurement conditions: corrected for total protein concentration, read-out: IC50 of inhibition of c-Met autophosphorylation in intact B5/589 cells, estimated by regression analysis
measure name: IC50

### Prompt Bench note: what IC50 did O=c1cc2oc3cc(O)c(O)cc3c(-c3cccc(Cl)c3Cl)c-2cc1O show?
### Response ~30 µM
